The origin of these recorded values is the supplement of paper PMC10515830.

Each entry below carries its reported difference in habituation to acoustic stimuli.
- Test system: Danio rerio larvae (5 dpf)
- measurementDescription: difference in habituation to acoustic stimuli vs DMSO (percentage points); higher = more habituation than DMSO
- conditionNotes: 10 µM; exposure time 6 h
Structures can show the parent of a compound that is named as a salt.
experimentalReadout: difference in habituation to acoustic stimuli

[[record]]
compound = "CCS(=O)(=O)N1CC(CC#N)(n2cc(-c3ncnc4[nH]ccc34)cn2)C1"
observedresult = -5.36

[[record]]
compound = "CCOC(=O)O[C@]1(C(=O)COC(=O)CC)CC[C@H]2[C@@H]3CCC4=CC(=O)C=C[C@]4(C)[C@H]3[C@@H](O)C[C@@]21C [Prednicarbate]"
observedresult = -0.38

[[record]]
compound = "CC1(C)C[C@@H]1C(=O)N/C(=C\\CCCCSC[C@H](N)C(=O)O)C(=O)O"
observedresult = -6.5

[[record]]
compound = "CN(C)CCc1c[nH]c2ccc(Cn3cncn3)cc12 [Rizatriptan (benzoate salt)]"
observedresult = 2.81

[[record]]
compound = "CC[C@H](C)C(=O)O[C@H]1C[C@@H](C)C=C2C=C[C@H](C)[C@H](CC[C@@H]3C[C@@H](O)CC(=O)O3)[C@H]21"
observedresult = -0.0098

[[record]]
compound = "CN(C)CCC=C1c2ccccc2CCc2ccccc21 [Amitriptyline (hydrochloride)]"
observedresult = -14.7

[[record]]
compound = "CC(C(=O)O)c1cccc(C(=O)c2ccccc2)c1 (racemic) [(±)-Ketoprofen]"
observedresult = 6.2

[[record]]
compound = "CN1CCN(C2=Nc3cc(Cl)ccc3Nc3ccccc32)CC1"
observedresult = -6.72


====

- Test system: Danio rerio larvae (5 dpf)
- measurementDescription: difference in habituation to acoustic stimuli vs DMSO (percentage points); higher = more habituation than DMSO
- conditionNotes: 10 µM; exposure time 6 h
Structures can show the parent of a compound that is named as a salt.
experimentalReadout: difference in habituation to acoustic stimuli

[[record]]
compound = "O=C(O[C@H]1CN2CCC1CC2)N1CCc2ccccc2[C@@H]1c1ccccc1 [Solifenacin (succinate)]"
observedresult = -1.09

[[record]]
compound = "Cc1ccc(-c2cc(C(F)(F)F)nn2-c2ccc(S(N)(=O)=O)cc2)cc1"
observedresult = -10.4

[[record]]
compound = "NS(=O)(=O)c1cc2c(cc1Cl)NCNS2(=O)=O [Hydrochlorothiazide]"
observedresult = 1.66

[[record]]
compound = "C[C@]12CCC(=O)C=C1CC[C@@H]1[C@@H]2[C@@H](O)C[C@@]2(C)[C@H]1CC[C@]2(O)C(=O)CO [Hydrocortisone]"
observedresult = 1.82

[[record]]
compound = "Oc1c(Cl)cc(Cl)c(Cl)c1Cc1c(O)c(Cl)cc(Cl)c1Cl"
observedresult = -9.66

[[record]]
compound = "CC(C)N1CCN(c2ccc(OCC3COC(Cn4cncn4)(c4ccc(Cl)cc4Cl)O3)cc2)CC1 (stereo not drawn)"
observedresult = -6.11

[[record]]
compound = "Oc1ncnc2[nH]ncc12"
observedresult = 0.54

[[record]]
compound = "Cc1cccc(C)c1OCC(C)N (stereo not drawn) [Mexiletine (hydrochloride)]"
observedresult = -10.3


====

- Tested on: Danio rerio larvae (5 dpf)
- measurementDescription: difference in startle response vs DMSO (percentage points); higher = stronger startle than DMSO
- conditionNotes: 10 µM; exposure time 6 h
Where a name gives a salt, the structure may show the parent alone.
Given measured difference in startle response, output met if it is greater than or equal to 2 and not met if not.

[[record]]
compound = "CCCCNc1ccc(C(=O)OCCOCCOCCOCCOCCOCCOCCOCCOCCOC)cc1 [Benzonatate]"
targetundertest = "Danio rerio larvae (5 dpf)"
labelclass = "not met"

[[record]]
compound = "O=C(O)CCCc1ccccc1 [Sodium 4-Phenylbutyrate]"
targetundertest = "Danio rerio larvae (5 dpf)"
labelclass = "met"

[[record]]
compound = "CC/C(=C(\\c1ccccc1)c1ccc(OCCN(C)C)cc1)c1ccccc1 [Tamoxifen (citrate)]"
targetundertest = "Danio rerio larvae (5 dpf)"
labelclass = "not met"

[[record]]
compound = "CN(N=O)C(=O)N[C@@H](C=O)[C@@H](O)[C@H](O)[C@H](O)CO [Streptozotocin]"
targetundertest = "Danio rerio larvae (5 dpf)"
labelclass = "not met"

[[record]]
compound = "COc1ccccc1Oc1c(NS(=O)(=O)c2ccc(C(C)(C)C)cc2)nc(-c2ncccn2)nc1OCCO [Bosentan]"
targetundertest = "Danio rerio larvae (5 dpf)"
labelclass = "not met"

[[record]]
compound = "O=C1[C@@H]2[C@H]3CC[C@H](C3)[C@@H]2C(=O)N1C[C@@H]1CCCC[C@H]1CN1CCN(c2nsc3ccccc23)CC1 [Lurasidone]"
targetundertest = "Danio rerio larvae (5 dpf)"
labelclass = "met"

[[record]]
compound = "Nc1cccc2c1CN(C1CCC(=O)NC1=O)C2=O (configuration not stated) [Lenalidomide]"
targetundertest = "Danio rerio larvae (5 dpf)"
labelclass = "met"

[[record]]
compound = "Oc1ccc(C2CNCCc3c2cc(O)c(O)c3Cl)cc1 (configuration not stated) [Fenoldopam (mesylate)]"
targetundertest = "Danio rerio larvae (5 dpf)"
labelclass = "not met"

[[record]]
compound = "CC#CC(=O)N1CCC[C@H]1c1nc(-c2ccc(C(=O)Nc3ccccn3)cc2)c2c(N)nccn12 [Acalabrutinib]"
targetundertest = "Danio rerio larvae (5 dpf)"
labelclass = "met"

[[record]]
compound = "COc1ccc(-c2ccc3cc(C(=O)O)ccc3c2)cc1C12CC3CC(CC(C3)C1)C2 [Adapalene]"
targetundertest = "Danio rerio larvae (5 dpf)"
labelclass = "met"

[[record]]
compound = "COc1ccc(CCN(C)CCCC(C#N)(c2ccc(OC)c(OC)c2)C(C)C)cc1OC (configuration not stated) [Verapamil (hydrochloride)]"
targetundertest = "Danio rerio larvae (5 dpf)"
labelclass = "not met"

[[record]]
compound = "Cc1ccc(Sc2ccccc2N2CCNCC2)c(C)c1 [Vortioxetine (hydrobromide)]"
targetundertest = "Danio rerio larvae (5 dpf)"
labelclass = "met"

[[record]]
compound = "Cc1cc(C)cc(OCC2CNC(=O)O2)c1 (configuration not stated) [Metaxalone]"
targetundertest = "Danio rerio larvae (5 dpf)"
labelclass = "not met"

[[record]]
compound = "CC(S)C(=O)NCC(=O)O (configuration not stated) [Tiopronin]"
targetundertest = "Danio rerio larvae (5 dpf)"
labelclass = "not met"

[[record]]
compound = "CC(=O)S[C@@H]1CC2=CC(=O)CC[C@]2(C)[C@H]2CC[C@@]3(C)[C@@H](CC[C@@]34CCC(=O)O4)[C@H]12 [Spironolactone]"
targetundertest = "Danio rerio larvae (5 dpf)"
labelclass = "not met"

[[record]]
compound = "OC[C@H]1NC[C@H](O)[C@@H](O)[C@H]1O [1-Deoxygalactonojirimycin (hydrochloride)]"
targetundertest = "Danio rerio larvae (5 dpf)"
labelclass = "not met"

[[record]]
compound = "CC(CCc1ccc(O)cc1)NCCc1ccc(O)c(O)c1 (configuration not stated) [Dobutamine (hydrochloride)]"
targetundertest = "Danio rerio larvae (5 dpf)"
labelclass = "met"

[[record]]
compound = "O=NN(CCCl)C(=O)NCCCl [Carmustine]"
targetundertest = "Danio rerio larvae (5 dpf)"
labelclass = "met"

[[record]]
compound = "CC#C[C@]1(O)CC[C@H]2[C@@H]3CCC4=CC(=O)CCC4=C3[C@@H](c3ccc(N(C)C)cc3)C[C@@]21C [Mifepristone]"
targetundertest = "Danio rerio larvae (5 dpf)"
labelclass = "not met"

[[record]]
compound = "CC(=O)Oc1c(C)cc(OCC(O)CNC(C)C)c(C)c1C (configuration not stated) [Metipranolol (hydrochloride)]"
targetundertest = "Danio rerio larvae (5 dpf)"
labelclass = "met"

[[record]]
compound = "CCC[C@@H]1C[C@@H](C(=O)N[C@@H]([C@H]2O[C@H](SC)[C@H](O)[C@@H](O)[C@H]2O)[C@H](C)Cl)N(C)C1 [Clindamycin]"
targetundertest = "Danio rerio larvae (5 dpf)"
labelclass = "met"

[[record]]
compound = "Cc1ccsc1C(=CCCN1CCC[C@@H](C(=O)O)C1)c1sccc1C [Tiagabine (hydrochloride)]"
targetundertest = "Danio rerio larvae (5 dpf)"
labelclass = "met"

[[record]]
compound = "O=C1Cc2cc(CCN3CCN(c4nsc5ccccc45)CC3)c(Cl)cc2N1 [Ziprasidone (hydrochloride hydrate)]"
targetundertest = "Danio rerio larvae (5 dpf)"
labelclass = "met"

[[record]]
compound = "COc1cc([C@@H]2c3cc4c(cc3[C@@H](O[C@@H]3O[C@@H]5CO[C@@H](c6cccs6)O[C@H]5[C@H](O)[C@H]3O)[C@H]3COC(=O)[C@H]23)OCO4)cc(OC)c1O [Teniposide]"
targetundertest = "Danio rerio larvae (5 dpf)"
labelclass = "not met"

[[record]]
compound = "CC#CCC(C)[C@H](O)/C=C/[C@@H]1[C@H]2C/C(=C/CCCC(=O)O)C[C@H]2C[C@H]1O (some centres not stated) [Iloprost]"
targetundertest = "Danio rerio larvae (5 dpf)"
labelclass = "not met"

[[record]]
compound = "C[C@@H](O)[C@H]1C(=O)N2C(C(=O)O)=C(S[C@@H]3CN[C@H](CNS(N)(=O)=O)C3)[C@H](C)[C@H]12 [Doripenem (hydrate)]"
targetundertest = "Danio rerio larvae (5 dpf)"
labelclass = "not met"

[[record]]
compound = "Oc1c(Cl)cc(Cl)c(Cl)c1Cc1c(O)c(Cl)cc(Cl)c1Cl [Hexachlorophene]"
targetundertest = "Danio rerio larvae (5 dpf)"
labelclass = "not met"

[[record]]
compound = "NCCc1ccc(O)c(O)c1 [Dopamine (hydrochloride)]"
targetundertest = "Danio rerio larvae (5 dpf)"
labelclass = "not met"

[[record]]
compound = "O=C(NC[C@H]1CN(c2ccc(N3CCOCC3=O)cc2)C(=O)O1)c1ccc(Cl)s1 [Rivaroxaban]"
targetundertest = "Danio rerio larvae (5 dpf)"
labelclass = "not met"

[[record]]
compound = "COc1ccc2cc(C(C)C(=O)O)ccc2c1 (single isomer, unassigned; (+)) [(+)-Naproxen]"
targetundertest = "Danio rerio larvae (5 dpf)"
labelclass = "met"

[[record]]
compound = "NC(=O)N[C@@H](CCC(=O)O)C(=O)O [N-Carbamyl-L-Glutamic Acid]"
targetundertest = "Danio rerio larvae (5 dpf)"
labelclass = "not met"

[[record]]
compound = "CC1(C)NC(=O)N(c2ccc([N+](=O)[O-])c(C(F)(F)F)c2)C1=O [Nilutamide]"
targetundertest = "Danio rerio larvae (5 dpf)"
labelclass = "not met"

